# Tested on: PPARg:RXRa 90nM:30nM, anti-RXR (NR concentration 90 nM, RXRa partner concentration 30 nM)
# assay-details: PBM binding z-score (relative to random genomic background probes); higher = stronger binding; sequences stand for … in GC…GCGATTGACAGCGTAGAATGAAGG
reported-property: PBM binding z-score

> print(dat)
                        input.sequence      val
 1  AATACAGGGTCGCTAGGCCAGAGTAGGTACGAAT    0.482
 2  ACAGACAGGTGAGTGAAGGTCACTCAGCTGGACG     1.46
 3  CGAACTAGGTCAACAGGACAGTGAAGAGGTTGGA     6.18
 4  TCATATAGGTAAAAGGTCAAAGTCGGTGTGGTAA     12.4
 5  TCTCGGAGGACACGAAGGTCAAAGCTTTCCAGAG     2.51
 6  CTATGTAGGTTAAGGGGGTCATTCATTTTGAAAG     7.77
 7  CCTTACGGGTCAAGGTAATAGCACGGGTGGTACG     3.28
 8  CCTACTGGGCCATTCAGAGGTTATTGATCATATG    0.458
 9  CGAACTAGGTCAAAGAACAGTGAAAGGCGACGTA     7.35
10  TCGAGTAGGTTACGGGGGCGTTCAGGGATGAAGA     3.91
11  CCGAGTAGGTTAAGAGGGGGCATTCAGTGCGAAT     2.43
12  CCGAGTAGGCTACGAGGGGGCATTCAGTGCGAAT     0.48
13  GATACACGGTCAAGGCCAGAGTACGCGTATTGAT  -0.0776
14  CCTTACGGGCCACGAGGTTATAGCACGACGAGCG    0.471
15  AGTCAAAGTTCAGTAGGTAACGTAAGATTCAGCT      4.2
16  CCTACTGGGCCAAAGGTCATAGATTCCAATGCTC     11.5
17  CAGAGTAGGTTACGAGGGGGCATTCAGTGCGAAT      3.3
18  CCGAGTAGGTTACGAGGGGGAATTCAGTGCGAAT     1.37
19  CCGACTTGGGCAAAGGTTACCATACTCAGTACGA     7.54
20  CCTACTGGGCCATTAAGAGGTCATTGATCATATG        2
21  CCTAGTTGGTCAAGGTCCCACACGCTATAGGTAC    0.409
22  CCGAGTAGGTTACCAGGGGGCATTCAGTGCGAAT     2.27
23  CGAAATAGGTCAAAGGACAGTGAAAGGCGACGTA     8.72
24  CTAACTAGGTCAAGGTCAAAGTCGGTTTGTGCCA     8.36
25  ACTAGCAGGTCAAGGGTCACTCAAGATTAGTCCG     10.3
26  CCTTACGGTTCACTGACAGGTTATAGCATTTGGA    0.771
27  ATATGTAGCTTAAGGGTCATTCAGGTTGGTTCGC     5.39
28  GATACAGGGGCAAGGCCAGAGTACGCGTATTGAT     0.23
29  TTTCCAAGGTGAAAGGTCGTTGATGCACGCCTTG     7.82
30  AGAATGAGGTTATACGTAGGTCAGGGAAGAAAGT     2.05
31  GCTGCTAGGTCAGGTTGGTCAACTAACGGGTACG   0.0771
32  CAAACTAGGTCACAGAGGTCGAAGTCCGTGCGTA     7.32
33  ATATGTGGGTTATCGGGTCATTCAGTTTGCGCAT     5.43
34  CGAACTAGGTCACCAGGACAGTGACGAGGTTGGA     6.34
35  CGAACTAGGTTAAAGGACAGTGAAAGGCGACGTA     8.79
36  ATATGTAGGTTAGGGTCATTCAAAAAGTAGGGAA     6.73
37  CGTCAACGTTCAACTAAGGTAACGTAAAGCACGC  -0.0957
38  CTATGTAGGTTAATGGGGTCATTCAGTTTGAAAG     6.55
39  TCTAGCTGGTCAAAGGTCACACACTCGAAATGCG     10.1
40  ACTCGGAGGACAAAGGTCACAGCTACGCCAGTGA     8.74
41  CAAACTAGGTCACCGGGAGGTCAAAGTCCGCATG     8.25
42  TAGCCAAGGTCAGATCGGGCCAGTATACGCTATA     1.53
43  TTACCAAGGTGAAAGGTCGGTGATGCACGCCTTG     7.95
44  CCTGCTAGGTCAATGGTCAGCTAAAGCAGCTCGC     5.15
45  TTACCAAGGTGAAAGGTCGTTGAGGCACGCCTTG     9.21
46  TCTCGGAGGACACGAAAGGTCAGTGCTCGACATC     2.19
47  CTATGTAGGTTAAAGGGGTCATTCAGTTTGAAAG     8.61
48  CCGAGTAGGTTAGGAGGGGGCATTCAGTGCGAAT     2.24
49  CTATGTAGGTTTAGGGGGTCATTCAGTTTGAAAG     4.77
50  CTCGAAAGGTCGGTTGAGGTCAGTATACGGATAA     1.75
51  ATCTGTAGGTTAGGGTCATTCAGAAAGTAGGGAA     3.76
